Biological target: T1, pm5 (Y15 and Y17 sulfated; Y16 not sulfated)
T1 construct: also called sulfated CCR8 N-terminal peptide pm5
T1 sequence (peptide, as listed by the source): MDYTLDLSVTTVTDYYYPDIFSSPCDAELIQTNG
Test: ELISA on coated peptide [cont.]
MEASURE_NAME: binding result

Prompt line: binding result lookup needed for anti-CCR8 mAb 1-18 (antibody, V domains shown, Murine hybridoma mAb) VH: QVQVQQSGAELARPGASVKMSCKASGYTFTTYAMHWVKQRPGQGLEWIGHINPSSGYSNYNQKFKDKATLTADKSSSTAYMQLSSLTSEDSAVYYCARSEVRRGYFDVWGAGTTVTVSS VL: DIQMTQTTSSLSASLGDRVTISCRTSQDIRNYLNWYQQKPDGTVKLLISYTSRLHSGVPSRFSGSGSGTDYSLTISNLEQEDFATYFCQQGNTLPPTFGGGTRVEIK , thanks.
Response line: binds

Prompt line: Which binding result is reported for this binder? anti-CCR8 mAb 1-9 (antibody, V domains shown, Murine hybridoma mAb) VH: EVQLVESGGGLVQPKGSLKLSCAASGFTFNAYAMNWVRQAPGKGLEWLARIRSKSNNYATYYADSVKDRFTISRDDSQSMFYLQMNNLKSEDTAMYYCVRGREAYYRYDGGYYAMDYWGQGTSVTVSS VL: EIVMTQAALSAPVTPGESVSMSCRSSKSLLHSNGNTYLYWFLQRPGQSPQLLIYRMSNLASGVPDRFSGSGSGTAFTLRISRVEAEDVGVYYCMQHLEYPFTFGSGTKLEIK
Response line: binds

Prompt line: Item under review: anti-CCR8 mAb 1-13 (antibody, V domains shown, Murine hybridoma mAb) VH: EVQLVETGGGLVQPKGSLKLSCAASGFTFNTNAMNWVRQAPGKGLEWVARIRSKSNYYATYYADSVKDRFTISRDDSQSMLYLQMNNLKTEDTAMYYCVRGREMGNYYSMDYWGQGTSVTVSS VL: DIVMTQAAPSVPVTPGESVSISCRSSKSLLHSNGNTYLYWFLQRPGQSPQLLIYRMSNLASGVPDRFSGSGSGTAFTLRISRVEAEDVGVYYCMQHLEYPFTFGSGTKLEIK . Reported binding result?
Response line: binds
